Top reference
- study.system: T1, human chemokine (C-C motif) receptor 8 (CCR8) protein (human, UniProt P51685 1-355)
- T1 construct: whole, on cells; also called human CCR8
- test.description: cell binding, CCR8-expressing U2OS cells, curve fit
Respond with the number and no other words.

binder	Top
88-H1L3 (antibody, V domains shown, Humanized 88D2C6) VH: EVQLVESGGGLVQPGGSLKLSCAASGFTFNPNAMNWVRQASGKGLEWVGRIRSKSNNYATYYADSVKDRFTISRDDSKNTAYLQMNSLKTEDTAVYYCTRGKDDGYRHYAMDYWGQGTTVTVSS VL: DIVMTQAPLSLPVTPGEPVSISCRSSKSLLHSNANTYLYWFLQKPGQSPQLLIYRMSNLASGVPDRFSGSGSGTAFTLKISRVEAEDVGVYYCMQHLEYPFTFGGGTKLEIK	27600
88-H3L3 (antibody, V domains shown, Humanized 88D2C6) VH: EVQLVESGGGLVQPGGSLKLSCAASGFTFNPNAMNWVRQASGKGLEWVARIRSKSNNYATYYADSVKDRFTISRDDSKNTLYLQMNNLKTEDTAVYYCVRGKDDGYRHYAMDYWGQGTTVTVSS VL: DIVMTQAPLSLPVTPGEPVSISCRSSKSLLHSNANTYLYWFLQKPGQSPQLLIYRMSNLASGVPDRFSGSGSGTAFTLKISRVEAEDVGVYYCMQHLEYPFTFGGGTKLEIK	27400

# lookup: Top of 88-H2L3 (antibody, V domains shown, Humanized 88D2C6) VH: EVQLVESGGGLVQPGGSLKLSCAASGFTFNPNAMNWVRQASGKGLEWVGRIRSKSNNYATYYADSVKDRFTISRDDSKNTAYLQMNNLKTEDTAVYYCVRGKDDGYRHYAMDYWGQGTTVTVSS VL: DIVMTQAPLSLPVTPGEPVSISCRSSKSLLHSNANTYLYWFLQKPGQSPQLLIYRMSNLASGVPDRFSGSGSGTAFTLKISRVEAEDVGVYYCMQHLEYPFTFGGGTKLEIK
25800

# lookup: Top of 88-H2L2 (antibody, V domains shown, Humanized 88D2C6) VH: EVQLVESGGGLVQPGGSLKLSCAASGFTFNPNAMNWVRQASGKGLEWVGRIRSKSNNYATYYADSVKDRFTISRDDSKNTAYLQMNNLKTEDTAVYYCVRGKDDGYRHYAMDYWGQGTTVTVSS VL: DIVMTQSPLSLPVTPGEPASISCRSSKSLLHSNANTYLYWFLQKPGQSPQLLIYRMSNLASGVPDRFSGSGSGTAFTLKISRVEAEDVGVYYCMQHLEYPFTFGGGTKVEIK
28300

# lookup: Top of 88-xi (antibody, V domains shown, also called 88D2C6; chimeric 88D2C6) VH: EVQLVETGGGLVQPKGSLKLSCAASGFTFNPNAMNWVRQAPGKGLEWVARIRSKSNNYATYYADSVKDRFTISRDDSQSMLYLQMNNLKTEDTAMYYCVRGKDDGYRHYAMDYWGQGTSVTVSS VL: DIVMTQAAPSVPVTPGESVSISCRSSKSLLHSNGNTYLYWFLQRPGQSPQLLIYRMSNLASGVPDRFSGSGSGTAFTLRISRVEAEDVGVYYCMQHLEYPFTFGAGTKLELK
29700

# lookup: Top of 88-H3L2 (antibody, V domains shown, Humanized 88D2C6) VH: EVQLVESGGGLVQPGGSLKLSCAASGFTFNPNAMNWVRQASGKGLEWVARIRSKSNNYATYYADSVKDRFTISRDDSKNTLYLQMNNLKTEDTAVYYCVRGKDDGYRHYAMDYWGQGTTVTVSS VL: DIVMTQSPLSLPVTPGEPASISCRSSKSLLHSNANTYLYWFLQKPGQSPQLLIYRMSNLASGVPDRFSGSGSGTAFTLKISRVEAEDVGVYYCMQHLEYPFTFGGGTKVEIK
27400
